melting point reference

The examples below pair each entry with its known result.
INSERT INTO results (compound, readout_kind, recorded_measurement) VALUES
  ('COc1cc(Nc2c(C#N)cnc3cc(-c4cccc(CN5CCOCC5)c4)sc23)c(Cl)cc1Cl', 'melting point', '205 to 207 °C'),
  ('CCCCCCC(O)CCCCCCCCCCC(=O)NCCCC (configuration not stated)', 'melting point', '100 to 102 °C'),
  ('COCNC(=O)CNC(=O)OCc1ccccc1', 'melting point', '77 to 78 °C'),
  ('C/C=C/OC(=O)/C=C/N(C)C', 'melting point', '48 to 48.5 °C'),
  ('COc1cc(C(F)(F)F)cc(OC)n1', 'melting point', '26 to 27 °C');

Could you please provide reported melting point for `CCOC(=O)c1nn(-c2ccc(Cl)cc2Cl)c(-c2ccc(Br)cc2)c1CC` ? Thanks!
108 °C

Could you please provide reported melting point for `Cc1cc(-c2ccc(C(F)(F)F)nc2)nc(-c2cccc(-c3ccc(S(N)(=O)=O)s3)c2)n1` ? Thanks!
238 °C
